Tested on: DERL-7 (IL-2 2.5 ng/mL)
assay notes: drug sensitivity score (DSS) (DSS units); higher = more sensitive; extreme values may be limits of the assay
reported conditions: 72 h
Consider the following molecules; for each one, report its drug sensitivity score.
Numbers only.

The following molecules have reported results that may help.
>  <molecule>
COc1cc(Nc2c(C#N)cnc3cc(OCCCN4CCN(C)CC4)c(OC)cc23)c(Cl)cc1Cl [Bosutinib] (max concentration tested 10000 nM)

>  <numeric value>
9.96

$$$$
>  <molecule>
CCc1cc(Nc2nccc(-c3c(-c4ccc(OC)c(C(=O)Nc5c(F)cccc5F)c4)nc4ccccn34)n2)c(OC)cc1N1CCC(N2CCN(S(C)(=O)=O)CC2)CC1 (max concentration tested 10000 nM)

>  <numeric value>
0

$$$$
>  <molecule>
CNc1nc(-c2ccc3c(N)n[nH]c3c2)cc(N2C[C@@H](C(=O)NC3CCCCC3)CC[C@H]2C)n1 (max concentration tested 10000 nM)

>  <numeric value>
13.6

$$$$
>  <molecule>
CC(C)N(CCCNC(=O)Nc1ccc(C(C)(C)C)cc1)C[C@H]1O[C@@H](n2cc(Br)c3c(N)ncnc32)[C@H](O)[C@@H]1O [SGC0946] (max concentration tested 10000 nM)

>  <numeric value>
1.92

$$$$

Kindly consider the entry below.
Q) Which measured drug sensitivity score value corresponds to Cn1cncc1[C@@](N)(c1ccc(Cl)cc1)c1ccc2c(c1)c(-c1cccc(Cl)c1)cc(=O)n2C [Tipifarnib] (max concentration tested 10000 nM) ?
A) 18.6

* * *

Tested on: KAI3 (IL-2 2.5 ng/mL)
assay notes: percent inhibition of viability; higher = more inhibition
reported conditions: 72 h; 100 nM
quantity kind: percent inhibition of viability (%)
Numbers only, in %.

>  <molecule>
CNNCc1ccc(C(=O)NC(C)C)cc1 [Procarbazine] (max concentration tested 10000 nM)

>  <percent inhibition of viability (%)>
-9.69

$$$$
>  <molecule>
CO[C@H]1/C=C\C=C(/C)C(=O)NC2=CC(=O)C(NCCN(C)C)=C(C[C@@H](C)C[C@H](OC)[C@H](O)[C@@H](C)/C=C(\C)[C@@H]1OC(N)=O)C2=O [Alvespimycin] (max concentration tested 1000 nM)

>  <percent inhibition of viability (%)>
78.1

$$$$
>  <molecule>
COc1ccc(-c2ccc3c(N4CCOC[C@@H]4C)nc(N4CCOC[C@@H]4C)nc3n2)cc1CO [AZD8055] (max concentration tested 10000 nM)

>  <percent inhibition of viability (%)>
50.1

$$$$
>  <molecule>
CON(C)C(=O)N1N=C(c2cc(F)ccc2F)S[C@@]1(CCCN)c1ccccc1 [ARRY-520] (max concentration tested 1000 nM)

>  <percent inhibition of viability (%)>
49.6

$$$$
>  <molecule>
CN(C[C@@H]1COCCO1)S(=O)(=O)Nc1ccc2ccc3ncc(-c4cnn(C)c4)cc3c(=O)c2c1 [MK-2461] (max concentration tested 10000 nM)

>  <percent inhibition of viability (%)>
7.38

$$$$

Kindly consider the entry below.
Q) Which measured percent inhibition of viability value corresponds to CCN(c1cc(-c2ccc(CN3CCOCC3)cc2)cc(C(=O)NCc2c(C)cc(C)[nH]c2=O)c1C)C1CCOCC1 [E7438] (max concentration tested 10000 nM) ?
A) 0.88

* * *

Consider the following molecules; for each one, report its drug sensitivity score.
Test system: YT (IL-2 2.5 ng/mL)
assay notes: drug sensitivity score (DSS) (DSS units); higher = more sensitive; extreme values may be limits of the assay
reported conditions: 72 h
One number for each entry.

>  <molecule>
Oc1c2ccccc2c2c3c(cccc13)N=N2 (max concentration tested 100000 nM)

>  <drug sensitivity score>
4.53

$$$$
>  <molecule>
Nc1cccc2c1CN(C1CCC(=O)NC1=O)C2=O (centres undefined) [Lenalidomide] (max concentration tested 100000 nM)

>  <drug sensitivity score>
0.46

$$$$
>  <molecule>
Nc1ccn([C@@H]2O[C@H](CO)[C@@H](O)C2(F)F)c(=O)n1 [Gemcitabine] (max concentration tested 1000 nM)

>  <drug sensitivity score>
17.4

$$$$

Kindly consider the entry below.
Q) Which measured drug sensitivity score value corresponds to COc1ccc(S(=O)(=O)Nc2cccnc2Nc2ccc(O)cc2)cc1 [ABT-751] (max concentration tested 10000 nM) ?
A) 20.3

* * *

Consider the following molecules; for each one, report its percent inhibition of viability.
System: IMC-1 (IL-2 20 ng/mL)
assay notes: percent inhibition of viability; higher = more inhibition
reported conditions: 72 h; 10 nM
Answers are plain numbers, in %.

>  <molecule>
COc1ccc(-c2ccc3ncc4c(c3c2)n(-c2ccc(N3CCNCC3)c(C(F)(F)F)c2)c(=O)n4C)cn1 [NVP-BGT226] (max concentration tested 1000 nM)

>  <measure unit>
%

>  <percent inhibition of viability>
-34.6

$$$$
>  <molecule>
C[C@@H]1COC(Nc2ccc3ncnc(Nc4ccc(OCc5nccs5)c(Cl)c4)c3c2)=N1 [Varlitinib] (max concentration tested 10000 nM)

>  <measure unit>
%

>  <percent inhibition of viability>
6.3

$$$$
>  <molecule>
C[C@@H](Oc1ccc2[nH]nc(/C=C/c3cnn(CCO)c3)c2c1)c1c(Cl)cncc1Cl (max concentration tested 1000 nM)

>  <measure unit>
%

>  <percent inhibition of viability>
-8.61

$$$$
>  <molecule>
Cn1cncc1[C@@](N)(c1ccc(Cl)cc1)c1ccc2c(c1)c(-c1cccc(Cl)c1)cc(=O)n2C [Tipifarnib] (max concentration tested 10000 nM)

>  <measure unit>
%

>  <percent inhibition of viability>
7.67

$$$$
>  <molecule>
C1=N/C2=N/c3ccc(OCCN4CCCC4)c(c3)COC/C=C/COCc3cccc(c3)C(=C1)N2 [Pacritinib] (max concentration tested 10000 nM)

>  <measure unit>
%

>  <percent inhibition of viability>
-0.5

$$$$

Kindly consider the entry below.
Q) Which measured percent inhibition of viability value corresponds to CC(C)(C)Cn1c(N)nc2ccc(-c3[nH]c(C(C)(C)C)nc3-c3ccc(F)cc3)nc21 [Ralimetinib] (max concentration tested 10000 nM) ?
A) -3.53

* * *

Test system: YT (IL-2 2.5 ng/mL)
assay notes: drug sensitivity score (DSS) (DSS units); higher = more sensitive; extreme values may be limits of the assay
reported conditions: 72 h
Consider the following compounds; for each one, report its drug sensitivity score.
One number for each entry.

The following compounds have reported results that may help.
>  <compound>
Cn1nnc2c(C(N)=O)ncn2c1=O [Temozolomide] (max concentration tested 100000 nM)

>  <numeric value>
0

$$$$
>  <compound>
CC(C)(C)Cn1c(N)nc2ccc(-c3[nH]c(C(C)(C)C)nc3-c3ccc(F)cc3)nc21 [Ralimetinib] (max concentration tested 10000 nM)

>  <numeric value>
4.06

$$$$
>  <compound>
CC[C@H](CO)Nc1nc(NCc2ccccc2)c2ncn(C(C)C)c2n1 [Seliciclib] (max concentration tested 10000 nM)

>  <numeric value>
4.39

$$$$

Kindly consider the entry below.
Q) Which measured drug sensitivity score value corresponds to c1ccc([C@H]2CN3CCSC3=N2)cc1 [Levamisole] (max concentration tested 10000 nM) ?
A) 0

* * *

System: NKL (IL-2 2.5 ng/mL)
assay notes: percent inhibition of viability; higher = more inhibition
reported conditions: 72 h; 1 nM
quantity kind: percent inhibition of viability (%)
Numbers only, in %.

The following compounds have reported results that may help.
>  <compound>
Nc1cc(F)ccc1NC(=O)/C=C/c1cnn(C/C=C/c2ccccc2)c1 [RGFP966] (max concentration tested 10000 nM)

>  <quantity kind>
percent inhibition of viability

>  <numeric value>
-2.36

$$$$
>  <compound>
CO[C@@H]1[C@H](N(C)C(=O)c2ccccc2)C[C@H]2O[C@]1(C)n1c3ccccc3c3c4c(c5c6ccccc6n2c5c31)C(=O)NC4 [Midostaurin] (max concentration tested 10000 nM)

>  <quantity kind>
percent inhibition of viability

>  <numeric value>
-4.72

$$$$
>  <compound>
CC(C)n1nc(-c2ccc3oc(N)nc3c2)c2c(N)ncnc21 [INK128] (max concentration tested 1000 nM)

>  <quantity kind>
percent inhibition of viability

>  <numeric value>
1.73

$$$$
>  <compound>
CN(C)Cc1ccc(S(=O)(=O)n2ccc(/C=C/C(=O)NO)c2)cc1 [Resminostat] (max concentration tested 10000 nM)

>  <quantity kind>
percent inhibition of viability

>  <numeric value>
10.2

$$$$
>  <compound>
COc1ccc(-c2ccc3ncc4c(c3c2)n(-c2ccc(N3CCNCC3)c(C(F)(F)F)c2)c(=O)n4C)cn1 [NVP-BGT226] (max concentration tested 1000 nM)

>  <quantity kind>
percent inhibition of viability

>  <numeric value>
-18.4

$$$$
>  <compound>
CNNCc1ccc(C(=O)NC(C)C)cc1 [Procarbazine] (max concentration tested 10000 nM)

>  <quantity kind>
percent inhibition of viability

>  <numeric value>
-15.8

$$$$

Quick batch: percent inhibition of viability for everything below.
1. O=C(c1cc(Cc2n[nH]c(=O)c3ccccc23)ccc1F)N1CCN(C(=O)C2CC2)CC1 [Olaparib] (max concentration tested 10000 nM)
2. CO[C@@]12[C@H](COC(N)=O)C3=C(C(=O)C(C)=C(N)C3=O)N1C[C@@H]1N[C@@H]12 [Mitomycin C] (max concentration tested 10000 nM)
3. CCc1c(C(=O)C(N)=O)c2c(OCC(=O)O)cccc2n1Cc1ccccc1 [Varespladib] (max concentration tested 10000 nM)
4. C#Cc1cccc(Nc2ncnc3cc(OCCOC)c(OCCOC)cc23)c1 [Erlotinib] (max concentration tested 10000 nM)
5. Cc1nc(N)sc1-c1ccnc(Nc2ccc(N3CCOCC3)cc2)n1 [CYC-116] (max concentration tested 10000 nM)

A)
1: 0.33; 2: -16.1; 3: -9.5; 4: 5.31; 5: -16

Quick batch: percent inhibition of viability for everything below.
1. O=c1ncn2nc(Sc3ccc(F)cc3F)ccc2c1-c1c(Cl)cccc1Cl [VX 745] (max concentration tested 10000 nM)
2. Cn1cncc1[C@@](N)(c1ccc(Cl)cc1)c1ccc2c(c1)c(-c1cccc(Cl)c1)cc(=O)n2C [Tipifarnib] (max concentration tested 10000 nM)

A)
1. -15.3
2. -4.94

Entry source: the supplement of paper PMC5908809
